- target desc: natriuretic peptide receptor on C3H10T1/2 cells
- assay text: cell-based or functional assay
Where no end group is shown, it is not given here.
assay metric: % relative binding (cGMP, Biotrak EIA, peptide at 10^-6 M) (%)

# binder, experimental value
records = [
    ("CFGLKLDRIGSMSKLGC [CNP variant SEQ ID NO:60]", 49.2),
    ("CIGLKLDRIGSMSGLGC [CNP variant SEQ ID NO:28]", 13.9),
    ("CMGLKLDRIGSMSGLGC [CNP variant SEQ ID NO:30]", -1.34),
    ("CFGLKLDRIGSGSGLGC [CNP variant SEQ ID NO:69]", 62.1),
    ("CAGLKLARIGSMSGLGC [CNP variant SEQ ID NO:24]", -5.85),
    ("CAGLKLARIGSASGLGC [CNP variant SEQ ID NO:27]", -10.4),
    ("CTGLKLDRIGSMSGLGC [CNP variant SEQ ID NO:34]", -6.9),
    ("CFGLKLNRIGSMSGLGC [CNP variant SEQ ID NO:37]", 17.2),
    ("CFGLKLDRLGSMSGLGC [CNP variant SEQ ID NO:51]", 14.2),
    ("CFGLKLDRIGSMSGLGC (not fully specified (bridges); ends and bridges not checked) [CNP 5-22 (17-mer, cyclic domain of CNP)]", 100),
    ("CFGLKLIRIGSMSGLGC [CNP variant SEQ ID NO:38]", 7.23),
    ("CFGLLLDRIGSMSGLGC [CNP variant SEQ ID NO:43]", 29.7),
    ("CFGLKLQRIGSMSGLGC [CNP variant SEQ ID NO:36]", -17.1),
    ("CFGLKADRIGSMSGLGC [CNP variant SEQ ID NO:45]", 11.3),
    ("CFGLKLDRIGSWSGLGC [CNP variant SEQ ID NO:65]", 66.5),
    ("CFGLKLDRVGSMSGLGC [CNP variant SEQ ID NO:52]", 27.1),
    ("CFGLKLDQIGSMSGLGC [CNP variant SEQ ID NO:50]", 12),
]

Hello, the source for this data is patent US20040138134A1, in case you need it.
